pIC50: −log10 of the molar value.
The following are reported pIC50 results, target or system SYK (Homo sapiens, UniProt P43405).

Guide cases for pIC50, answers given:
1. CC(C)n1cc(-c2cncc3cnc(N[C@@H]4CCCC[C@@H]4N)nc23)cn1 [Compound A26] : 4.30 to 6.00
2. Nc1ncc(-c2cc3ccccc3[nH]2)c2nc(N[C@@H]3CCCC[C@@H]3N)ncc12 (relative stereo) [Compound A10] : > 7.00
3. N[C@@H]1CCCC[C@@H]1Nc1ncc2cncc(-c3c[nH]c4cc(C(F)(F)F)ccc34)c2n1 (stereo in doubt) [Compound A41] : > 7.00
4. Cn1cc(-c2cnc(N)c3cnc(N[C@@H]4CCCC[C@@H]4N)nc23)cn1 (single isomer, unassigned) [Compound A1] : > 7.00

// each compound listed below needs its pIC50
1. COc1ccc2[nH]c(-c3cnc(N)c4cnc(N[C@@H]5CCCC[C@@H]5N)nc34)cc2c1 (relative stereo) [Compound A19]
2. Cc1ncc(-c2c[nH]c3cc(C#N)ccc23)c2nc(N[C@H]3CCCC[C@H]3N)ncc12 (relative stereo) [Compound A85]
3. CC(C)C[C@@H](Nc1ncc2cncc(-c3c[nH]c4cc(C(F)(F)F)ccc34)c2n1)C(N)=O [Compound A62]
4. N[C@@H]1CCCC[C@@H]1Nc1ncc2cncc(-c3cc4n(n3)CCCC4)c2n1 (stereo in doubt) [Compound A33]
5. Cc1nn(C)cc1-c1cncc2cnc(N[C@@H]3CCCC[C@@H]3N)nc12 (relative stereo) [Compound A25]
6. N[C@H]1CCCC[C@H]1Nc1ncc2cncc(-c3c[nH]c4cnccc34)c2n1 [Compound A76]

["> 7.00", "6.00 to 7.00", "> 7.00", "4.30 to 6.00", "4.30 to 6.00", "> 7.00"]

// each compound listed below needs its pIC50
1. CN1CN(c2ncc3c(N)ncc(-c4cnn(C)c4)c3n2)[C@@H]2CCCC[C@@H]21 (single isomer, unassigned) [Compound A11]
2. N[C@@H]1CCCC[C@@H]1Nc1ncc2cncc(-c3cc4ccc(F)cc4[nH]3)c2n1 (stereo in doubt) [Compound A42]
3. CC1(C)CCOc2cc(-c3cncc4cnc(N[C@@H]5CCCC[C@@H]5N)nc34)ccc21 [Compound A29]
4. COC[C@H](N)CNc1ncc2cncc(-c3cccc(C)c3)c2n1 [Compound A30]
5. Cc1ncc(-c2c[nH]c3cc(C(F)(F)F)ccc23)c2nc(N[C@H]3CCCC[C@H]3N)ncc12 (single isomer, unassigned) [Compound A89]

1: 4.30 to 6.00; 2: 4.30 to 6.00; 3: 4.30 to 6.00; 4: 4.30 to 6.00; 5: > 7.00

// each compound listed below needs its pIC50
1. COC[C@H](N)CNc1ncc2c(N)ncc(-c3cnn(C)c3)c2n1 [Compound A20]
2. Cc1cccc(-c2cnc(N)c3cnc(N[C@@H]4CCCC[C@@H]4N)nc23)c1 (single isomer, unassigned) [Compound A22]

6.00 to 7.00
> 7.00

// each compound listed below needs its pIC50
1. Nc1ncc(-c2c[nH]c3ccccc23)c2nc(N[C@H]3CCCC[C@H]3N)ncc12 (relative stereo) [Compound A24]
2. N#Cc1cnc(N)c2cnc(N[C@H]3CCCC[C@H]3N)nc12 (relative stereo) [Compound A9]
3. Nc1ncc(-c2ccccc2)c2nc(N[C@@H]3CCCC[C@@H]3N)ncc12 [Compound A17]
4. CC(C)C[C@@H](Nc1ncc2cncc(-c3c[nH]c4cc(C#N)ccc34)c2n1)C(N)=O [Compound A65]
5. N#Cc1ccc2c(-c3cncc4cnc(NC5CCCCC5)nc34)c[nH]c2c1 [Compound A80]
6. N#Cc1ccc2c(-c3cnc(C(F)F)c4cnc(N[C@@H]5CCCC[C@@H]5N)nc34)c[nH]c2c1 [Compound A87]
7. Cc1ncc(-c2c[nH]c3cc(C(F)(F)F)ccc23)c2nc(N[C@@H]3CCCC[C@@H]3N)ncc12 (single isomer, unassigned) [Compound A88]
8. N[C@@H]1CCCC[C@@H]1Nc1ncc2cncc(-c3c[nH]c4ccccc34)c2n1 (stereo in doubt) [Compound A27]

1. > 7.00
2. 4.30 to 6.00
3. 6.00 to 7.00
4. > 7.00
5. 4.30 to 6.00
6. > 7.00
7. 4.30 to 6.00
8. > 7.00

// each compound listed below needs its pIC50
1. N[C@H]1CCCC[C@H]1Nc1ncc2c(C(F)F)ncc(-c3c[nH]c4cc(C(F)(F)F)ccc34)c2n1 [Compound A82]
2. N[C@@H]1CCCC[C@@H]1Nc1ncc2cncc(-c3cc4n(n3)CCOC4)c2n1 (stereo in doubt) [Compound A43]
3. Cc1cccc(-c2cncc3cnc(N[C@H](CC(C)C)C(N)=O)nc23)c1 [Compound A32]
4. Nc1ncc(-c2ccc(OC(F)(F)F)cc2)c2nc(N[C@@H]3CCCC[C@@H]3N)ncc12 (single isomer, unassigned) [Compound A14]

1: > 7.00; 2: 4.30 to 6.00; 3: 4.30 to 6.00; 4: 6.00 to 7.00

###

For each entry below, report its IC50 value.
- TARGET SYSTEM: SYK (Homo sapiens, UniProt P43405)
- Construct: 2.5 nM SYK, 400 nM Biotin-Aha-Aha-KEDPDYEWPSAKK
- ASSAY TEXT: SYK Flash Plate Assay (enzyme assay)
- Assay type: biochemical
- EXPERIMENTAL SETUP: Syk inhibition

Guide cases for IC50, answers given:
1) NC1CCOCC1Nc1ncc2cncc(-c3c[nH]c4cc(C(F)(F)F)ccc34)c2n1 (stereo not drawn) : < 100 nM
2) Cc1cccc(-c2cncc3cnc(N[C@H]4CCCC[C@H]4N)nc23)c1 (stereo in doubt) : 100 to 1000 nM
3) Cn1cc(-c2cnc(C(F)F)c3cnc(N[C@@H]4CCCC[C@@H]4N)nc23)cn1 : 100 to 1000 nM
4) N[C@H]1CCCC[C@H]1Nc1ncc2cncc(-c3ccc4[nH]cnc4c3)c2n1 : 1000 to 50000 nM
5) Cn1cc(-c2cnc(N)c3cnc(N[C@H]4CCCC[C@H]4N)nc23)cn1 (single isomer, unassigned) : 1000 to 50000 nM

// each compound listed below needs its IC50
1. N#Cc1ccc2[nH]c(-c3cnc(N)c4cnc(N[C@@H]5CCCC[C@@H]5N)nc34)cc2c1 (relative stereo)
2. N#Cc1ccc2c(-c3cncc4cnc(N[C@@H]5CCCC[C@@H]5N)nc34)c[nH]c2c1
3. N#Cc1ccc2c(-c3cncc4cnc(N[C@@H]5CCOC[C@@H]5N)nc34)c[nH]c2c1
4. N[C@@H]1CCCC[C@@H]1Nc1ncc2cncc(-c3c[nH]c4ccc(F)cc34)c2n1 (stereo in doubt)
5. Cc1cccc(-c2cnc(N)c3cnc(N[C@H]4CCCC[C@H]4N)nc23)c1 (single isomer, unassigned)

100 to 1000 nM
< 100 nM
100 to 1000 nM
< 100 nM
1000 to 50000 nM

###

- TARGET SYSTEM: SYK (Homo sapiens)
READOUT LABEL: IC50

Guide cases for IC50, answers given:
1) Cn1cc(-c2cnc(N)c3cnc(NCCN)nc23)cn1 [Compound A6] : 1000 to 50000 nM
2) COC[C@H](N)CNc1ncc2cncc(-c3c[nH]c4cc(C(F)(F)F)ccc34)c2n1 [Compound A61] : 1000 to 50000 nM
3) NC1CCCCC1Nc1ncc2cncc(-c3c[nH]c4c(F)cccc34)c2n1 (centres unmarked) [Compound A63] : < 100 nM
4) COc1cccc(C#Cc2cncc3cnc(N[C@H]4CCCC[C@H]4N)nc23)c1 (stereo in doubt) [Compound A35] : 100 to 1000 nM

// each molecule listed below needs its IC50
1. N#Cc1cccc2c(-c3cncc4cnc(N[C@@H]5CCCC[C@@H]5N)nc34)c[nH]c12 [Compound A72]
2. CC(C)Cn1cc(-c2cnc(N)c3cnc(N[C@H]4CCCC[C@H]4N)nc23)cn1 (relative stereo) [Compound A8]
3. N[C@H]1CCCC[C@H]1Nc1ncc2cncc(-c3cc4cccc(F)c4[nH]3)c2n1 [Compound A81]
4. NC(=O)c1ccc2c(-c3cncc4cnc(N[C@@H]5CCCC[C@@H]5N)nc34)c[nH]c2c1 [Compound A77]

1: < 100 nM; 2: 100 to 1000 nM; 3: 100 to 1000 nM; 4: < 100 nM

###

- TARGET SYSTEM: SYK (Homo sapiens)
- Construct: 2.5 nM SYK, 400 nM Biotin-Aha-Aha-KEDPDYEWPSAKK
- ASSAY TEXT: SYK Flash Plate Assay (enzyme assay)
- Format: biochemical
- EXPERIMENTAL SETUP: Syk inhibition
For each entry below, report its IC50 value.

Guide cases for IC50, answers given:
1. FC1(CNc2ncc3cncc(-c4c[nH]c5cc(C(F)(F)F)ccc45)c3n2)CCCNC1 (single isomer, unassigned) [Compound A79] : 1000 to 50000 nM
2. CC(C)(C)c1ccc(-c2cnc(N)c3cnc(N[C@H]4CCCC[C@H]4N)nc23)cc1 (relative stereo) [Compound A7] : 1000 to 50000 nM
3. N[C@H]1CCCC[C@H]1Nc1ncc2cncc(-c3ccc4[nH]c(=O)[nH]c4c3)c2n1 [Compound A37] : 1000 to 50000 nM
4. COC[C@H](N)CNc1ncc2cncc(-c3c[nH]c4cc(C#N)ccc34)c2n1 [Compound A67] : 1000 to 50000 nM

Here is the next item to consider.
Lab note: N#Cc1ccc2[nH]cc(-c3cncc4cnc(N[C@@H]5CCCC[C@@H]5N)nc34)c2c1 [Compound A44] gave IC50 of 100 to 1000 nM
